Data origin, for the record: PubChem BioAssay

# nuclei count values compiled below
assay: endothelial E-selectin expression blockers – imaging, HUVEC, immunofluorescence, MLSMR starter and 10KST1 sets, primary screen (AID 487); conditions: HUVEC TNFalpha-induced E-selectin immunofluorescence imaging, at 2 µM; measured here: cell number, toxicity;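 as to nuclei count: 100% = median nuclei count of all wells on the same plate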
Readout Type: nuclei count (%)

Cc1cc(C)c(Cn2c(=O)n(CCCC(=O)NCc3ccco3)c(=O)c3ccccc32)c(C)c1 = 112
Cc1ccc(-c2cc(C(F)(F)F)n3ncc(C(=O)O)c3n2)cc1 = 110
COc1ccccc1S(=O)(=O)n1cc(Cc2ccccc2)c(N)n1 = 114
CCCn1nc(NS(=O)(=O)c2ccccc2)c2cc3ccccc3nc21 = 102
C#CCN1C(=O)C(O)(CC(=O)c2cccc(OC)c2)c2ccccc21 (stereo unspecified) = 163
Cc1cccc(-c2noc(CCC(=O)Nc3ccccc3)n2)c1 = 140
COC(=O)c1ccccc1S(=O)(=O)N(CCCN1CCOCC1)Cc1cccs1 = 115
CCOc1ccc(-n2cc(C(=O)Nc3cccc(C)n3)c3cc(OC)c(OC)cc3c2=O)cc1 = 94
Cc1nc(SCC#N)c2c(C)c(C)sc2n1 = 118
Nc1nc(C2C(=O)CCCC2=O)cs1 = 148
O=C(CN1C(=O)c2cccc3cccc1c23)NCC1CCCO1 (stereo unspecified) = 102

* * *

test: endothelial E-selectin expression blockers – imaging, HUVEC, immunofluorescence, MLSMR starter and 10KST1 sets, primary screen (AID 487); conditions: HUVEC TNFalpha-induced E-selectin immunofluorescence imaging, at 2 µM; stronger effect = higher value;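 as to inhibition: signal is fraction of cell area covered by stained E-selectin grains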
Would you mind labelling by inhibition? At or over -60% is Y, under is N.

Cn1c(=O)c2c(nc(SCc3nn[nH]n3)n2Cc2ccccc2F)n(C)c1=O = Y
COC(=O)Cc1c(C)nc2nc(-c3ccco3)[nH]n2c1=O = Y
COC(=O)c1sccc1NC(=O)c1ccncc1 = Y
Nc1nnc(SCCOc2ccccc2)s1 = N
CCOC(=O)c1sc(C)c2c1NC(C)(c1cccs1)NC2=O (centres undefined) = Y
O=C(c1ccco1)N1CCN(C(=O)c2ccc(Cn3cc(Br)cn3)o2)CC1 = Y
CC1CCN(C(=O)Cn2c(=O)oc3ccccc32)CC1 = N
COc1cccc(-n2c(SCC(=O)OC(C)C)nnc2-c2cccnc2)c1 = Y
CCc1nnc(NC(=O)CSc2nc3ccccc3s2)s1 = Y
CCC(NS(=O)(=O)c1ccc(C)cc1)C(=O)N1CCC2(O)CCCCC2C1 (centres undefined) = N
Cc1ccccc1CS(=O)(=O)Cc1ccc(C(=O)NCCCN2CCOCC2)o1 = N
CCn1c(=O)n(CC(=O)NCc2ccccc2OC)c(=O)c2ccccc21 = N
Cc1cc(OC(=O)N2CCOCC2)cc(C)c1Cl = Y
CCOC(=O)N1CCN(C(=O)CN(C)S(=O)(=O)c2ccc(OC)c(OC)c2)CC1 = Y
O=C(Cn1nnc(-c2ccncc2)n1)Nc1ccc2c(c1)CCC2 = N
Cc1ccc(Nc2cc(C)nc3nnnn23)cc1 = Y
COc1c2ccoc2nc2c(OC)c(OCC(O)C(C)(C)O)ccc12 (centres undefined) = N
Cc1cccc(N2CN=c3s/c(=C\c4ccncc4)c(=O)n3C2)c1 = Y
COC(=O)c1cc(Br)c(=O)n(CCC2=CCCCC2)c1 = Y
O=C(Nc1ccc(N2CCCC2=O)cc1)c1cccc(F)c1 = Y
OCCN1CCN(CC(O)COc2ccc3ccccc3c2)CC1 (centres undefined) = Y
NC(=O)C1(N2CCCCC2)CCN(Cc2ccccc2Cl)CC1 = Y
COCCOC(=O)C1=C(C)Nc2ncnn2C1c1ccc(F)cc1 (centres undefined) = Y
